TEST SYSTEM: T1, human interleukin 13 receptor subunit alpha 2 (IL-13RA2) (human, UniProt Q14627 27-380)
T1 construct: whole, on cells; also called IL-13Rα2; CD213A2
T1 sequence (looked up): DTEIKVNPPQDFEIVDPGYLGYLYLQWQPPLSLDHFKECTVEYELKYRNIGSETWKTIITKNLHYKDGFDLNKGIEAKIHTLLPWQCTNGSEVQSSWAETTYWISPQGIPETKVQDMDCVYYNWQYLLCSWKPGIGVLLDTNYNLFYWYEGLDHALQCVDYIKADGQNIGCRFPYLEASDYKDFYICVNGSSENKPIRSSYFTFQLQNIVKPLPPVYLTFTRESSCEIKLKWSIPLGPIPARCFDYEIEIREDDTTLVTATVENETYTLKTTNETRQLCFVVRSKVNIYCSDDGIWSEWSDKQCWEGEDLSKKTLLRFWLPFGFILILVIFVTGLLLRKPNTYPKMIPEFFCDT
EXPERIMENTAL PROTOCOL: FACS on A375 cells
READOUT TYPE: Top (MFI)
Numeric only. Scale: MFI

BINDER	VALUE OBSERVED
xi62A8D8 hIgG1 (antibody, V domains shown) VH: EVKLVESGGGLVKPGGSLKLSCAASGFTFSSYGMSWVRQTPEKRLEWVATISGGGSYTYYPDSVKGRFTISRDNAKNNLYLQMSSLRSEDTALYYCARRDLRSAMDYWGQGTSVTVSS VL: DIVMTQSQKFMSTSVGDRVSVTCKASQNVDINVAWYQQKPGQSPKALIYSASYRYSGVPDRFTGSGSGTDFTLTISNVQSEDLAEFFCQQYNNYPLTFGGGTKLEIK	17300
xi74B5E4 hIgG1 (antibody, V domains shown) VH: EVKLVESGGGLVKPGGSLRLSCAASGFTFSTYGMSWVRQTPEKRLEWVATISGGGSYTYYPDSVKGRFTISRDNAKNNLYLQMSSLRSEDTALYYCARRDLRSAMDYWGQGTSVTVSS VL: DIVMTQSQKFMSTSVGDRVSVTCKASQNVDINVAWYQQKPGQSPKALIYSASYRYSGVPDRFTGSGSGTDFTLTISNVQSEDLAEYFCQQYNTYPLTFGGGTKLEIK	18100

# input for lookup
Asked: Quick one: Top (MFI) for xi24G6D5 hIgG1 (antibody, V domains shown) VH: QVQLQQSGPELVKPGTSVKMSCKASGYTFTSNYIHWVKQRPGQGLEWIGWIYPGDGSIKYNEKFKGKTTLTADKSSSTVYMLLSSLTSEDSAIYFCAVLRRLDYWGQGTTLTVSS VL: DIVLTQSPATLSVTPGDSVSLSCRASQSISNNLHWYQQKSHESPRLLIKYASQSISGIPSRFSGSGSGTDFTLSINSVETEDFGMYFCQQSNSWPLTFGAGTKLELK ?
Given back: 15200

These measurements were taken from patent US20250163164A1.
